Assignment: determine reported TGI for the given molecules.
Tested on: KM12 colon
experiment-notes: NCI tumour cell line growth inhibition, 48 h

Problem: So what's the measured TGI for this one? CCOC(=O)/N=c1\ss/c(=N\C(=S)N(C)C)n1-c1ccccc1
Solution: > 100 µM

Problem: Entry CSC(SC)=C1C(=O)NN=C1C please
Solution: > 100 µM

Problem: Subsequent entry: CCOP(=O)(OCC)C1C(=O)O[C@H]2CCCC[C@@H]12 (stereo partly drawn)
Solution: > 100 µM

====

Tested on: NCI-H226 lung
experiment-notes: NCI tumour cell line growth inhibition, 48 h
Kindly state TGI for each of the entries shown.

Problem: Entry COc1cc(C2C(Cl)C(=O)N2n2cnc3ccccc3c2=O)cc(OC)c1OC (stereo not drawn) has what TGI?
Solution: > 100 µM

Problem: Check CCCCN(CCCC)C(=O)C(=O)CC(=O)c1ccc(Br)cc1 too.
Solution: > 100 µM

Problem: What do you have for O=C1/C(=C\c2ccc([N+](=O)[O-])cc2)Sc2scc(-c3ccc(O)c(O)c3)[n+]21 ?
Solution: > 100 µM

All values here come from PubChem BioAssay (NCI).
